# Measured target: Glucose transporter (Leishmania mexicana) (UniProt O61059)
# Assay comment: ST_JUDE_LEISH: Cytotoxicity at 2uM final concentration against transgenic Leishmania Mexicana promastigotes LmGT2 that are glucose transport deficient and complemented with the L. Mexicana glucose transporter 2. Activity is measured by DNA content using SYBR green in vitro
# Assay type: functional
Readout label: inhibition

Exercise: For the molecule shown here, C=C[C@H]1CN2CC[C@@H]1C[C@H]2[C@H](O)c1cc(-c2ccc(F)cc2)nc2ccc(OC)cc12 , give the reported inhibition.
Key: 3.68%

Exercise: Please answer likewise for O=[N+]([O-])c1ccc(Oc2c(Cl)cc(S(=O)(=O)N3CCC(CN4CCC(c5c[nH]c6ccccc56)CC4)CC3)cc2Cl)c(Cl)c1
Key: 3.15%

Exercise: Please answer likewise for Cc1c(C(=O)N[C@@H](C)c2ccccc2)c2cc(O)c(Br)cc2n1C1CCCCC1
Key: 3.33%

Exercise: Please answer likewise for CN1C2CCC1c1cc(NC(=O)c3cc(-c4ccc(Cl)cc4)cs3)ccc12 (centres undefined)
Key: 8.52%

Exercise: Please answer likewise for CCOC(=O)c1c(C)n(C2CCCCC2)c2cc(Br)c(O)cc12
Key: -0.74%

Exercise: Please answer likewise for Cc1ccc(-n2nc(C)c3c2NC(=O)CSC3c2ccsc2)cc1 (centres undefined)
Key: 11%

Exercise: Please answer likewise for COC(=O)c1ccc(CC(C)NCC(O)c2ccc(F)c(Cl)c2)cc1 (centres undefined)
Key: 2.31%

Exercise: Please answer likewise for N#Cc1c(Cl)cccc1Oc1ccc(S(=O)(=O)N2CCC(CN3CCC(c4c[nH]c5ccccc45)CC3)CC2)cc1
Key: -0.73%

Exercise: Please answer likewise for CC[C@H]1CN2CC[C@@H]1C[C@H]2[C@H](O)c1cc[n+]([O-])c2ccc(OC)cc12
Key: -1.06%

From: ChEMBL document CHEMBL3433997
